Tested on: SF-295 CNS
Test: NCI tumour cell line growth inhibition, 48 h
measure-name: TGI

compound: CCCCCCCCCCCCCCCCOCC(CC(F)(F)P(=O)(O)O)OC(C)=O (stereo not given)
result: > 50 µM
--
compound: O=C1c2cc(Cl)ccc2-n2c(noc2=O)C2CSCN12 (stereo not given)
result: > 100 µM
--
compound: O=C(Cc1nc2ccc(C(=O)c3ccccc3)cc2[nH]c1=O)C(=O)Nc1ccccc1[N+](=O)[O-]
result: > 100 µM
--
compound: COc1cc(OC)c(CSCC(NC(=O)OCC2c3ccccc3-c3ccccc32)C(=O)O)c(OC)c1 (stereo not given)
result: > 10 µM
--
compound: COc1ccccc1C(=O)c1cnc(NC2CCN(S(C)(=O)=O)CC2)nc1N
result: > 25 µM
